# Tested on: gene editing with Cas9
# Protocol: Screen of 322 new SSAP proteins, gene editing activity with Cas9 (Table 5)
# Type: cell-based
# Assay conditions: normalized
Measured parameter: Cas9 with SSAP activity (normalized)
Output spec: single numeric token, no unit.

Input line: State its Cas9 with SSAP activity (normalized) for this molecule: SSAP_261: SEQ ID NO: 430; Peptoniphilus grossensis (protein, listed as Peptoniphilus grossensis) TNIQKQENRALSPVNQMKNLLKNQGMQNLFADALKENKDRFLASIIDLYNGDTSLQDCNPKEVVMEALKAATLNLPINKNLGYAYIVPYNSKGTTRPQFQIGYKGYIQMAQRSGQYKALNAGILYEGMEVKRDFLRGTFEIIGEPKSDKVMGYFAYFQLLNGYEKAIYMTKDEVTEHAERYSQSYGSKYSPWKKQFDEMGQKTVIKKLLSKYGVLTTEFQDAVKEEEDREVLRATENNAMLEMTNPDEEEETIEVNPETGEIIEDDVKAPF
Output line: −0.174
